Molecular target: T1, human MSR1 extracellular domain expressed with a N-terminal nonahistidine tag (human, UniProt P21757 77-451)
T1 construct: extracellular domain; also called His9-hMSR1; His-hMSR1
T1 sequence: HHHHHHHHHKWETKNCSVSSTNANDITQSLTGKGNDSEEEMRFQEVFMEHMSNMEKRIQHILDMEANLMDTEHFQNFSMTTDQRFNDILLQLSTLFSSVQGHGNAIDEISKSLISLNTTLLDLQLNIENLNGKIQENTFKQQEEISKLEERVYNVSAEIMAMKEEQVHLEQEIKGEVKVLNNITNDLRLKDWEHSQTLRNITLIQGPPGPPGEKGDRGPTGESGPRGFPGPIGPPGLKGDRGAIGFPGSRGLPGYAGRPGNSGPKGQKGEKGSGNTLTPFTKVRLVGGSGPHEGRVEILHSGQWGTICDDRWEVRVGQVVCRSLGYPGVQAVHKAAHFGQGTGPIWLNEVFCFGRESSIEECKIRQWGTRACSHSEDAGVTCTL
Assay: competition ELISA, plate-coated His9-hMSR1; 100 nM antibody, competitor ligand Ac-LDL
Listing of recorded % Blocking by entry.
Observable: % Blocking (%)

>>> observed_measurement("H1H27749P-N297Q (antibody, V domains shown, Human IgG1 Fc with N297Q) VH: QVQLQESGPGLVKPSETLSLTCTVSDGSISSYYWSWIRQPPGRGLEWIGFIYYSGSTSYNPSLKSRVTISVDTSMSQFSLKLRSVTAADTAVYYCARGSPFDYWGPGTLVTVSS VL: EIVLTQSPGTLSLSPGERATLSCRASQSVSSSYLAWYQQRPGQAPSLLISGASRRATGIPDRFSGSGSGTDFTLTIRRLEPEDFAMYYCQQYGSSPPTFGGGTKVEIKR")
-51
>>> observed_measurement("H1H27734P-N297Q (antibody, V domains shown, Human IgG1 Fc with N297Q) VH: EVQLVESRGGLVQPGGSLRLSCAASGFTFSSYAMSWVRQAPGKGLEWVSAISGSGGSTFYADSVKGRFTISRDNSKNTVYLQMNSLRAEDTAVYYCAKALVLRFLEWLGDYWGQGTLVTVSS VL: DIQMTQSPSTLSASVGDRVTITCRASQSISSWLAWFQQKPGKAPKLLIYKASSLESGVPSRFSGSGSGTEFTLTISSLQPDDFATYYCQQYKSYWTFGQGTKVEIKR")
-38
>>> observed_measurement("H1H27747P-N297Q (antibody, V domains shown, Human IgG1 Fc with N297Q) VH: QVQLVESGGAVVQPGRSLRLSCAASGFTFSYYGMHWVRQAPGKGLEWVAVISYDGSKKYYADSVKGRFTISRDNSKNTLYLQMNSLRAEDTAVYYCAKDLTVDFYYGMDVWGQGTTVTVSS VL: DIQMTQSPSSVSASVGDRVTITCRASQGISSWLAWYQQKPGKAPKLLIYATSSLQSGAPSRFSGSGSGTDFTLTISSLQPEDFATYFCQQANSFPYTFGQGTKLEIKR")
-44
